Ref: patent US11180483B2

system: Bmi-1; assay: Sandwich ELISA Assay (Bmi-1 ELISA) in HT-1080 cells; type: cell-based
pEC50: −log10 of the molar value.
endpoint: pEC50

compoundStructure	valueReported
Cc1nc2ccc(F)cc2n1-c1nc(N)c(F)c(Nc2ccc(OC(F)F)c(F)c2)n1	7.00 to 8.00

(Q) Read the entry "Cc1nc2ccccc2n1-c1nc(NCCO)cc(Nc2ccc(C(F)(F)F)cc2)n1" and write its reported pEC50.
(A) 5.52 to 7.00

(Q) Quickly give me recorded pEC50 for "Cc1nc2ncccc2n1-c1nc(N)cc(Nc2ccc(C(F)(F)F)cc2)n1"
(A) 7.00 to 8.00

(Q) Recall and state the measured pEC50 for "Nc1nc(-n2c(C3CC3)nc3ccccc32)nc(Nc2ccc(OC(F)F)cc2)c1F" .
(A) 8.00 to 9.00

(Q) Quote pEC50 reported for "Cc1nc2ccc(F)cc2n1-c1nc(N)c(F)c(Nc2ccc(C#N)cc2)n1" please.
(A) 5.52 to 7.00

(Q) Complete the entry with pEC50 for "Cc1nn2ccccc2c1-c1nc(N)cc(Nc2ccc(C(F)(F)F)cc2)n1"
(A) 5.52 to 7.00
